Answer each item with its documented D(90).
Experiment: Particle size distribution (PSD) by laser diffraction, Malvern Mastersizer 2000
Format: physicochemical
Conditions: Table 1, bulk API batch
State just the number; it will be interpreted in μm.

D(90) measured on Cc1cc2c(s1)Nc1ccccc1N=C2N1CCN(C)CC1 [Batch S1-920] = 11

D(90) measured on Cc1cc2c(s1)Nc1ccccc1N=C2N1CCN(C)CC1 [Batch M1-010] = 13

D(90) measured on Cc1cc2c(s1)Nc1ccccc1N=C2N1CCN(C)CC1 [Batch M7-121] = 42

D(90) measured on Cc1cc2c(s1)Nc1ccccc1N=C2N1CCN(C)CC1 [Batch S1-220] = 26

D(90) measured on Cc1cc2c(s1)Nc1ccccc1N=C2N1CCN(C)CC1 [Batch S3-221] = 26

D(90) measured on Cc1cc2c(s1)Nc1ccccc1N=C2N1CCN(C)CC1 [Batch M2-121] = 30

D(90) measured on Cc1cc2c(s1)Nc1ccccc1N=C2N1CCN(C)CC1 [Batch S3-020] = 17

D(90) measured on Cc1cc2c(s1)Nc1ccccc1N=C2N1CCN(C)CC1 [Batch S2-920] = 38

D(90) measured on Cc1cc2c(s1)Nc1ccccc1N=C2N1CCN(C)CC1 [Batch M6-020] = 24

----------
Assay: Particle size distribution (PSD) by laser diffraction, Malvern Mastersizer 2000
Format: physicochemical
Conditions: Table 1, bulk API batch
Answer each item with its documented D(3,2).
State just the number; it will be interpreted in μm.

D(3,2) measured on Cc1cc2c(s1)Nc1ccccc1N=C2N1CCN(C)CC1 [Batch M7-121] = 8.3

D(3,2) measured on Cc1cc2c(s1)Nc1ccccc1N=C2N1CCN(C)CC1 [Batch M1-010] = 4.2

D(3,2) measured on Cc1cc2c(s1)Nc1ccccc1N=C2N1CCN(C)CC1 [Batch S3-020] = 5.4

D(3,2) measured on Cc1cc2c(s1)Nc1ccccc1N=C2N1CCN(C)CC1 [Batch M6-020] = 6.6

D(3,2) measured on Cc1cc2c(s1)Nc1ccccc1N=C2N1CCN(C)CC1 [Batch M2-121] = 6.4

D(3,2) measured on Cc1cc2c(s1)Nc1ccccc1N=C2N1CCN(C)CC1 [Batch S1-920] = 4.1

D(3,2) measured on Cc1cc2c(s1)Nc1ccccc1N=C2N1CCN(C)CC1 [Batch S1-220] = 6.1

D(3,2) measured on Cc1cc2c(s1)Nc1ccccc1N=C2N1CCN(C)CC1 [Batch S3-221] = 6.4

D(3,2) measured on Cc1cc2c(s1)Nc1ccccc1N=C2N1CCN(C)CC1 [Batch S2-920] = 7.6

----------
Answer each item with its documented Flow function.
Test: Flow function by FT4 Powder Rheometer, shear test 9 kPa
Assay type: physicochemical
Conditions: 9 kPa shear test, 1 ml cell
// keep it numeric: no unit symbol after the value

Flow function measured on Cc1cc2c(s1)Nc1ccccc1N=C2N1CCN(C)CC1 [Batch M7-121] = 2.1

Flow function measured on Cc1cc2c(s1)Nc1ccccc1N=C2N1CCN(C)CC1 [Batch S1-920] = 1.2

Flow function measured on Cc1cc2c(s1)Nc1ccccc1N=C2N1CCN(C)CC1 [Batch S3-020] = 1.3

Flow function measured on Cc1cc2c(s1)Nc1ccccc1N=C2N1CCN(C)CC1 [Batch S1-220] = 1.5

Flow function measured on Cc1cc2c(s1)Nc1ccccc1N=C2N1CCN(C)CC1 [Batch M2-121] = 1.5

----------
Test: Bulk/tapped density, Ph. Eur. 2.9.34 Method 1, ERWEKA SVM 122
Type: physicochemical
Conditions: Table 1
Answer each item with its documented TD (tapped density).
State just the number; it will be interpreted in g/mL.

TD (tapped density) measured on Cc1cc2c(s1)Nc1ccccc1N=C2N1CCN(C)CC1 [Batch M1-010] = 0.37

TD (tapped density) measured on Cc1cc2c(s1)Nc1ccccc1N=C2N1CCN(C)CC1 [Batch S3-221] = 0.40

TD (tapped density) measured on Cc1cc2c(s1)Nc1ccccc1N=C2N1CCN(C)CC1 [Batch M7-121] = 0.50

TD (tapped density) measured on Cc1cc2c(s1)Nc1ccccc1N=C2N1CCN(C)CC1 [Batch S2-920] = 0.45

TD (tapped density) measured on Cc1cc2c(s1)Nc1ccccc1N=C2N1CCN(C)CC1 [Batch S1-220] = 0.39

TD (tapped density) measured on Cc1cc2c(s1)Nc1ccccc1N=C2N1CCN(C)CC1 [Batch S3-020] = 0.28

TD (tapped density) measured on Cc1cc2c(s1)Nc1ccccc1N=C2N1CCN(C)CC1 [Batch S1-920] = 0.29

TD (tapped density) measured on Cc1cc2c(s1)Nc1ccccc1N=C2N1CCN(C)CC1 [Batch M2-121] = 0.39

TD (tapped density) measured on Cc1cc2c(s1)Nc1ccccc1N=C2N1CCN(C)CC1 [Batch M6-020] = 0.41
